experiment_summary: small-molecule microarray binders of probe aEGFR, primary screen, biochemical, biotinylated probe, 635/667 nm fluorescence (AID 1097);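 also: probe is a biotinylated anti-EGFR antibody binding compounds printed on slides; score combines fluorescence near 667 nm and signal to noise of each spot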
stated_conditions: higher = more signal
measured_attribute: composite z-score

Worked cases, composite z-score given:
input_smiles=CN(C)CCCC[C@@H]1NC(=O)[C@H]2C[C@@H](C(=O)NCCCCCNC(=O)CS)[C@@H](c3cccc(OCCO)c3)N2C1=O reported_result=-0.136
input_smiles=COc1ccc(CCN2C(=O)[C@@]3(c4ccc([N+](=O)[O-])cc4)CC(=O)N(C4CCCCC4)[C@@H]3c3ccc(CO)cc32)cc1 reported_result=-0.1
input_smiles=COC(=O)[C@@]1(Cc2ccccc2)[C@H]2c3cc(C(=O)N(C)C)n(CCSCCO)c3C[C@H]2CN1C(=O)c1ccccc1 reported_result=0.0239

Read the next record carefully.
stdin: So what does the record say about composite z-score for `C[N+](C)(C)CCCCNC(=O)[C@H]1C[C@H]2C(=O)N[C@@H](Cc3ccccc3)C(=O)N2[C@H]1c1ccc(O)cc1` ?
stdout: -0.112

----------
experiment_summary: RPMI8226 myeloma cell viability, profiling panel, resazurin fluorescence, basal, 24 h, PK04 Diversity Set (AID 1180);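 also: RPMI8826 multiple myeloma cell line at 5000 cells per well; test concentration not given here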
stated_conditions: higher = more signal
measured_attribute: z-score
// return a plain number; no unit text

Example results:
compound=Cc1ccc(S[C@]2(C(=O)NC3CC3)CC(=O)N(C3Cc4ccccc4C3)[C@@H]2c2ccc(CO)cc2)cc1 reported_result=0.0919
compound=COC(=O)c1c(CC[C@@H](CO)NC(=O)N2CCC[C@H]2Cn2cc(-c3ccccn3)nn2)oc(C(C)=O)c1C(=O)OC reported_result=0.426
compound=COc1ccc(CCNC(=O)[C@@]2(C)c3ccccc3C(=O)N(Cc3cc(F)cc(C(F)(F)F)c3)[C@H]2c2ccc(CO)cc2)cc1 reported_result=0.652

Turning now to a further record.
stdin: Query: z-score; subject: COc1ccc(NN2C(C(O)c3ccc([N+](=O)[O-])cc3)C=CC3C(=O)N(C4CCCCC4)C(=O)C32)cc1 (centres undefined)
stdout: 0.907

----------
Each entry below lists one item and its recorded z-score value.
experiment_summary: CREB reporter modulators under forskolin, primary screen, cell-based, PC12, CRE-LacZ reporter, forskolin-stimulated (AID 1146);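 also: PC12 cells with 6xCRE LacZ reporter stimulated by forskolin 10 µM; beta-galactosidase reporter signal reflecting CREB driven transcription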
stated_conditions: luminescence, 4.5 h, higher = more signal, called active from +8 up or from −8 down
The source made the active and inactive calls.

Examples from the recorded data:
compound=C#CCN(CC1=CCCCC1)[C@H](c1ccccc1Br)[C@@H](O)Cc1ccccc1 reported_result="0.219 (inactive)"
compound="C=CCC(OC(C)=O)[C@@H]1[C@@H](N(Cc2cccc3ccccc23)C(=O)c2ccc(-c3ccccc3)cc2)c2cc(OCCCO)ccc2N1C(=O)Cc1ccc(OC)cc1 (some centres not stated)" reported_result="0.117 (inactive)"
compound="CN1C(=O)C2C=CC(C(O)C3=C[C@H]4C[C@@H](C3)C4(C)C)N(Nc3ccccc3)C2C1=O (some centres not stated)" reported_result="0.767 (inactive)"
compound=COCCOC(=O)N1C(=O)[C@@]2(c3cc(C#Cc4ccc(OC)cc4)ccc31)[C@H](c1ccccc1OCCO)N1[C@H](c3ccccc3)[C@H](c3ccccc3)OC(=O)[C@H]1[C@@H]2C(=O)N1CCN(c2ncccn2)CC1 reported_result="0.298 (inactive)"
compound="CS(=O)(=O)CCOC(=O)C1=CC(CCCO)=CC(c2ccc(CN3CCCC3)cc2)N(Cc2cc3c(cc2Br)OCO3)C=C1C(=O)OCCS(C)(=O)=O (configuration not stated)" reported_result="-1.45 (inactive)"
compound="COCCCNC(=O)C1N=C(c2ccc(OCCCO)cc2)N(c2ccccc2)O1 (configuration not stated)" reported_result="0.72 (inactive)"

Please examine the following record next.
stdin: Which measured z-score value corresponds to CC(C)C[C@H]1NC(=O)[C@@]23C(=O)N[C@@H](Cc4ccccc4)C2[C@H](C)[C@@]2(C)O[C@H]2C3/C=C/C/C=C\CNC(=O)[C@H](Cc2ccccc2)NC1=O (some centres not stated) ?
stdout: -0.862 (inactive)
